- measured_target: T1, MAPT(10-24) (human, also: biotinylated, site not given here)
- T1 construct: also called Tau fragment 10-24
- T1 peptide: VMEDHAGTYGLGDRK
- assay_protocol: ELISA on Tau 15-mer peptides, O.D.; conditions of this panel not given
Where no end group is shown, it is not given here.

binder	binding result
19H6-F7 (antibody, mouse IgG2a, V domains shown) VH: EVQLVESGGDLVKPGGSLKLSCAASGFTFSSYGMSWVRQTPDKRLEWVATISSGGTYTYYPDSVKGRFTISRDNAKNTLYLQMSSLKSEDTAMYYCAPSYDGAMDYWGQGTSVTVSS VL: DVLMTQTPLSLPVSLGDQASISCRSSQSIVHSNGNTYLEWYLQKPGQSPKLLIYKVSNRFSGVPDRFSGSGSGTDFTLKISRVEAEDLGVYYCFQGSLVPWTFGGGTKLEIK	binds
54C1-H11 (antibody, mouse IgG2a, V domains shown) VH: EVQLVESGGDLVKPGGSLKVSCVASGFTFRSYGMSWVRQTPDKRLDWVATISSGGNYTYYPDSVKGRFTISRDNAKNTLYLQMSSLKSEDTAMYYCASSYSGAMDYWGQGTSVTVSS VL: DTVMTQSPLSLPVSLGDQASISCRSSQSIVHSNGNTYLEWYLQKPGQSPKLLIYTVSNRFSGVPDRFSGSGSGTDFTLKISRVEAEDLGVYYCFQGSHVPWTFGGGTKLEIK	binds
37D3-H9 (antibody, mouse IgG2a, V domains shown, also called 37D3-H9 mIgG2a; 37D3-H9 IgG) VH: EVQLVESGGDLAKPGGSLKLSCTASGLIFRSYGMSWVRQTPDKRLEWVATINSGGTYTYYPDSVKGRFTISRDNAKNTLYLQMSSLKSEDTAMYYCANSYSGAMDYWGQGTSVTVSS VL: DDLLTQTPLSLPVSLGDPASISCRSSQSIVHSNGNTYFEWYLQKPGQSPKLLIYKVSNRFSGVPDRFSGSGSGTDFTLKISRVEAEDLGVYYCFQGSLVPWTFGGGTKLEIK	binds
